Tested on: Enterobacterales
Experiment: MIC, broth microdilution, CDC/FDA Antibiotic Resistance Isolate Bank (Example 7, Tables 8, 11, 12)
Assay type: cell-based
Conditions: Klebsiella pneumoniae, Klebsiella pneumoniae KUB No. 5829, AR Bank #524; read-out: MIC
Parameter MIC: see the listing below.
readout_kind: MIC (µg/mL)

compound="CO/N=C(\\C(=O)N[C@@H]1C(=O)N2C(C(=O)[O-])=C(C[n+]3ccn4ncccc43)CS[C@H]12)c1nsc(N)n1 [Cefozopran, cefozopran]" target_desc=Enterobacterales unit_label=µg/mL experimental_result=32
compound="C[C@H]1COc2c(N3CCN(C)CC3)c(F)cc3c(=O)c(C(=O)O)cn1c23 [Levofloxacin, levofloxacin]" target_desc=Enterobacterales unit_label=µg/mL experimental_result=32
compound="CC(C)(O/N=C(\\C(=O)N[C@@H]1C(=O)N2C(C(=O)[O-])=C(C[N+]3(CCNC(=O)c4ccc(O)c(O)c4Cl)CCCC3)CS[C@H]12)c1csc(N)n1)C(=O)O [Cefiderocol, cefiderocol]" target_desc=Enterobacterales unit_label=µg/mL experimental_result=0.5
compound="NCC[C@H](O)C(=O)N[C@@H]1C[C@H](N)[C@@H](O[C@H]2O[C@H](CN)[C@@H](O)[C@H](O)[C@H]2O)[C@H](O)[C@H]1O[C@H]1O[C@H](CO)[C@@H](O)[C@H](N)[C@H]1O [Amikacin, amikacin]" target_desc=Enterobacterales unit_label=µg/mL experimental_result=16

====

Parameter MIC: see the listing below.
System: P. aeruginosa
Test: MIC, broth microdilution, CDC/FDA Antibiotic Resistance Isolate Bank (Example 7, Tables 10, 15)
Assay type: cell-based
Conditions: Pseudomonas aeruginosa, P. aeruginosa KUB No. 5083, AR Bank # 250; read-out: MIC
readout_kind: MIC (µg/mL)

compound="CO/N=C(\\C(=O)N[C@@H]1C(=O)N2C(C(=O)[O-])=C(C[n+]3ccn4ncccc43)CS[C@H]12)c1nsc(N)n1 [Cefozopran, cefozopran]" unit_label=µg/mL qualifier_operator=> experimental_result=64
compound="NCC[C@H](O)C(=O)N[C@@H]1C[C@H](N)[C@@H](O[C@H]2O[C@H](CN)[C@@H](O)[C@H](O)[C@H]2O)[C@H](O)[C@H]1O[C@H]1O[C@H](CO)[C@@H](O)[C@H](N)[C@H]1O [Amikacin, amikacin]" unit_label=µg/mL qualifier_operator=> experimental_result=64
compound="C[C@H]1COc2c(N3CCN(C)CC3)c(F)cc3c(=O)c(C(=O)O)cn1c23 [Levofloxacin, levofloxacin]" unit_label=µg/mL qualifier_operator== experimental_result=64
compound="CC(C)(O/N=C(\\C(=O)N[C@@H]1C(=O)N2C(C(=O)[O-])=C(C[N+]3(CCNC(=O)c4ccc(O)c(O)c4Cl)CCCC3)CS[C@H]12)c1csc(N)n1)C(=O)O [Cefiderocol, cefiderocol]" unit_label=µg/mL qualifier_operator== experimental_result=4

====

Molecular target: OXA-65 (Acinetobacter baumannii)
Sequence (Q58XD3 entry or part of it): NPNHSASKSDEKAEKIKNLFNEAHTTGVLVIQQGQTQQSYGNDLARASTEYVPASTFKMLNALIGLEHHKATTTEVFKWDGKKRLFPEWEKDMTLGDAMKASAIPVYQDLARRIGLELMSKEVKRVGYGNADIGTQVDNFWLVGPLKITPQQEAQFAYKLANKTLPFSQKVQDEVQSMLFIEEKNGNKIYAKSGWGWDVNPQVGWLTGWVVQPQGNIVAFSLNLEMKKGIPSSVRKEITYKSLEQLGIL
Test: Ki,app against β-lactamase (Example 1, Table 1)
Settings: OXA-65, class D; 30 min preincubation; n.d.: too low inhibitor activity at 100 µmol/L
readout_kind: Ki

compound="NC(=O)[C@@H]1CC[C@@H]2CN1C(=O)N2OS(=O)(=O)O [Avibactam, avibactam]" target_desc="OXA-65 (Acinetobacter baumannii)" readout_kind=Ki experimental_result="5.9 µM"

====

Tested on: A. baumannii
Test: MIC, broth microdilution, CDC/FDA Antibiotic Resistance Isolate Bank (Example 7, Tables 9, 13, 14)
Format: cell-based, Acinetobacter baumannii
Conditions: Acinetobacter baumannii, KUB No. 5727, AR Bank #294; read-out: MIC
readout_kind: MIC

mol=CN(C)c1cc(NC(=O)CNC(C)(C)C)c(O)c2c1C[C@H]1C[C@H]3[C@H](N(C)C)C(O)=C(C(N)=O)C(=O)[C@@]3(O)C(O)=C1C2=O experimental_result="0.5 µg/mL"
mol=C[C@H]1COc2c(N3CCN(C)CC3)c(F)cc3c(=O)c(C(=O)O)cn1c23 experimental_result="32 µg/mL"
mol=O=C(O)c1cn(C2CC2)c2cc(N3CCNCC3)c(F)cc2c1=O experimental_result="> 64 µg/mL"
mol=CC(C)(O/N=C(\C(=O)N[C@@H]1C(=O)N2C(C(=O)[O-])=C(C[N+]3(CCNC(=O)c4ccc(O)c(O)c4Cl)CCCC3)CS[C@H]12)c1csc(N)n1)C(=O)O experimental_result="0.5 µg/mL"
mol=C[C@H]1[C@H](NC(=O)/C(=N\OC(C)(C)C(=O)O)c2csc(N)n2)C(=O)N1S(=O)(=O)O experimental_result="32 µg/mL"
mol=NCC[C@H](O)C(=O)N[C@@H]1C[C@H](N)[C@@H](O[C@H]2O[C@H](CN)[C@@H](O)[C@H](O)[C@H]2O)[C@H](O)[C@H]1O[C@H]1O[C@H](CO)[C@@H](O)[C@H](N)[C@H]1O experimental_result="64 µg/mL"
mol=CO/N=C(\C(=O)N[C@@H]1C(=O)N2C(C(=O)[O-])=C(C[n+]3ccn4ncccc43)CS[C@H]12)c1nsc(N)n1 experimental_result="> 64 µg/mL"

====

Parameter MIC: see the listing below.
Tested on: A. baumannii
Test: MIC, broth microdilution, CDC/FDA Antibiotic Resistance Isolate Bank (Example 7, Tables 9, 13, 14)
Type: cell-based, Acinetobacter baumannii
Conditions: Acinetobacter baumannii, A. baumannii KUB No. 5706, AR Bank #273; OXA-23, OXA-66; read-out: MIC
readout_kind: MIC

mol=O=C(O)c1cn(C2CC2)c2cc(N3CCNCC3)c(F)cc2c1=O readout_kind=MIC experimental_result="> 64 µg/mL"
mol=CN(C)c1cc(NC(=O)CNC(C)(C)C)c(O)c2c1C[C@H]1C[C@H]3[C@H](N(C)C)C(O)=C(C(N)=O)C(=O)[C@@]3(O)C(O)=C1C2=O readout_kind=MIC experimental_result="0.5 µg/mL"
mol=NCC[C@H](O)C(=O)N[C@@H]1C[C@H](N)[C@@H](O[C@H]2O[C@H](CN)[C@@H](O)[C@H](O)[C@H]2O)[C@H](O)[C@H]1O[C@H]1O[C@H](CO)[C@@H](O)[C@H](N)[C@H]1O readout_kind=MIC experimental_result="> 64 µg/mL"

====

Test system: A. baumannii
Assay: MIC, broth microdilution, CDC/FDA Antibiotic Resistance Isolate Bank (Example 7, Tables 9, 13, 14)
Type: cell-based, Acinetobacter baumannii
Conditions: Acinetobacter baumannii, KUB No. 5725, AR Bank #292; read-out: MIC
readout_kind: MIC (µg/mL)

mol=CN(C)c1cc(NC(=O)CNC(C)(C)C)c(O)c2c1C[C@H]1C[C@H]3[C@H](N(C)C)C(O)=C(C(N)=O)C(=O)[C@@]3(O)C(O)=C1C2=O experimental_result=0.25
mol=CC(C)(O/N=C(\C(=O)N[C@@H]1C(=O)N2C(C(=O)[O-])=C(C[N+]3(CCNC(=O)c4ccc(O)c(O)c4Cl)CCCC3)CS[C@H]12)c1csc(N)n1)C(=O)O experimental_result=0.5
mol=CO/N=C(\C(=O)N[C@@H]1C(=O)N2C(C(=O)[O-])=C(C[n+]3ccn4ncccc43)CS[C@H]12)c1nsc(N)n1 experimental_result=16
mol=NCC[C@H](O)C(=O)N[C@@H]1C[C@H](N)[C@@H](O[C@H]2O[C@H](CN)[C@@H](O)[C@H](O)[C@H]2O)[C@H](O)[C@H]1O[C@H]1O[C@H](CO)[C@@H](O)[C@H](N)[C@H]1O experimental_result=32
mol=C[C@H]1COc2c(N3CCN(C)CC3)c(F)cc3c(=O)c(C(=O)O)cn1c23 experimental_result=4

====

Test system: P. aeruginosa
Test: MIC, broth microdilution, CDC/FDA Antibiotic Resistance Isolate Bank (Example 7, Tables 10, 15)
Format: cell-based
Conditions: Pseudomonas aeruginosa, P. aeruginosa KUB No. 5821, AR Bank # 516; read-out: MIC
Parameter MIC: see the listing below.
readout_kind: MIC (ng/mL)

compound="CC(C)(O/N=C(\\C(=O)N[C@@H]1C(=O)N2C(C(=O)[O-])=C(C[N+]3(CCNC(=O)c4ccc(O)c(O)c4Cl)CCCC3)CS[C@H]12)c1csc(N)n1)C(=O)O [Cefiderocol, cefiderocol]" readout_kind=MIC unit_label=ng/mL qualifier_operator== experimental_result=0.5
compound="C[C@H]1[C@H](NC(=O)/C(=N\\OC(C)(C)C(=O)O)c2csc(N)n2)C(=O)N1S(=O)(=O)O [Aztreonam, aztreonam]" readout_kind=MIC unit_label=ng/mL qualifier_operator=> experimental_result=64
compound="NCC[C@H](O)C(=O)N[C@@H]1C[C@H](N)[C@@H](O[C@H]2O[C@H](CN)[C@@H](O)[C@H](O)[C@H]2O)[C@H](O)[C@H]1O[C@H]1O[C@H](CO)[C@@H](O)[C@H](N)[C@H]1O [Amikacin, amikacin]" readout_kind=MIC unit_label=ng/mL qualifier_operator== experimental_result=2
